test system: S. aureus USA 300; assay: Minimal inhibitory concentration, microbroth dilution; assay type: cell-based; settings: Staphylococcus aureus, USA300; MIC; read-out: Minimal Inhibitory Concentrations (μM) S. aureus USA 300
Numbered stars: 1 amine (or outer) side, 2 acyl side, 3 side chain; on linkers, the order of the positions; unused ones are H or OH. Bridge positions count the residues as written; N and C are the ends. Square brackets hold non-standard residues; d marks the D form. Peptide text beside a SMILES is read from it. * marks the point of attachment. ξ: configuration not given here. Piperazine(2S-CO,4-Me) = CN1CCN[C@H](C(=O)O)C1; Phe(3-Me) = Cc1cccc(C[C@H](N)C(=O)O)c1; NH(4-Cl-2-F-phenyl) = Fc1cc(Cl)ccc1N*; Pro(4R-Me) = C[C@H]1CN[C@H](C(=O)O)C1; Hyp = O=C(O)[C@@H]1C[C@@H](O)CN1; NH(4-Et-phenyl) = CCc1ccc(N*)cc1; ξNMeThr = CNC(C(=O)O)[C@@H](C)O; aThr = C[C@H](O)[C@H](N)C(=O)O; Pip = O=C(O)[C@@H]1CCCCN1; CO = O=C([*:1])[*:2]
measure: MIC (µM)

compound | measure | recorded value
CCc1ccc(NC(=O)N[C@@H](Cc2cccc(C)c2)C(=O)N[C@@H]2C(=O)N3C[C@H](O)C[C@H]3C(=O)N3CCCC[C@H]3C(=O)N[C@@H](C)C(=O)N3CCC[C@H]3C(=O)O[C@H]2C)cc1 [Compound 58] ({NH(4-Et-phenyl)-CO}-[Phe(3-Me)][aThr][Hyp][Pip]AP; ester 2-C) | MIC | 0.625
Cc1cccc(C[C@H](NC(=O)Nc2ccc(Cl)cc2F)C(=O)N[C@@H]2C(=O)N3C[C@H](O)C[C@H]3C(=O)N3CCN(C)C[C@H]3C(=O)N[C@@H](C)C(=O)N3C[C@H](C)C[C@H]3C(=O)O[C@H]2C)c1 [Compound 31] ({NH(4-Cl-2-F-phenyl)-CO}-[Phe(3-Me)][aThr][Hyp][Piperazine(2S-CO,4-Me)]A[Pro(4R-Me)]; ester 2-C) | MIC | 0.078
Cc1cccc(C[C@H](NC(=O)Nc2ccc(Cl)cc2F)C(=O)N[C@@H]2C(=O)N3CCC[C@H]3C(=O)N(C)C([C@@H](C)O)C(=O)N[C@@H](C)C(=O)N3C[C@H](C)C[C@H]3C(=O)O[C@H]2C)c1 (stereo partly drawn) [Compound 5] ({NH(4-Cl-2-F-phenyl)-CO}-[Phe(3-Me)][aThr]P[ξNMeThr]A[Pro(4R-Me)]; ester 2-C) | MIC | 0.078

Numbers sourced from patent US10570179B2.
